# Test system: OVCAR-5 ovarian
# PROCEDURE_SUMMARY: NCI-60 one-dose screen, 48 h (100 = growth as untreated, 0 = no growth, -100 = all killed)
# STATED_CONDITIONS: 10 µM
Compounds without any hit were thinned out: in the full panel of roughly 83,000, 20% have a hit.

MOLECULE | MEASUREMENT_TARGET | UNIT_ANNOTATION | growth
O=C(c1ccc(O)cc1)C1[C@H](c2ccc(Br)cc2)[C@@H](c2ccccc2)NC12C(=O)Nc1ccccc12 (some centres undefined) | OVCAR-5 ovarian | % | 58.7
COc1cc(Cn2c(C(F)(F)F)cc3c(Cl)ncnc32)ccn1 | OVCAR-5 ovarian | % | 93.7
Cc1ccc2nc(COc3ccc(C(=O)NNC(=S)NCCc4ccccc4)cc3)[nH]c2c1 | OVCAR-5 ovarian | % | 88.9
Cc1cc2c(c(O)c1Br)-c1ncoc1C(=O)[C@]1(C)CC[C@H](C(C)C)[C@H]21 | OVCAR-5 ovarian | % | 73.2
CCOC(=O)C(Cc1ccccc1)N1C(=O)/C(=C/N2N=C(c3ccc(OC)cc3)CC2c2ccc3ccccc3c2)SC1=S (centres undefined) | OVCAR-5 ovarian | % | 39.3
O=C(c1ccc(Cl)cc1)C1[C@H](c2ccccc2Br)[C@@H](c2ccccc2)NC12C(=O)Nc1ccc(Cl)cc12 (some centres undefined) | OVCAR-5 ovarian | % | 20.8
COc1ccc(-c2cc(-c3cc(C(=O)c4ccc(Br)cc4)n4ccc(C)cc34)nc(N)c2C#N)cc1 | OVCAR-5 ovarian | % | 91.8
O=C(CSc1nnc(-c2ccc3nc(-c4ccccc4)[nH]c3c2)o1)Nc1ccc(Cl)cc1 | OVCAR-5 ovarian | % | 65.1
O=C(Cc1ccc2c(c1)CN(C1CCC(=O)NC1=O)C2=O)NCc1cccc2ccccc12 (centres undefined) | OVCAR-5 ovarian | % | -11
C=CC(=O)Nc1ccc(C(=O)/C=C/c2ccc(N(C)CCF)cc2)c(O)c1 | OVCAR-5 ovarian | % | -49.3
Cn1c(O)c(N=Nc2nc(-c3cc4ccccc4oc3=O)cs2)c2cc(Br)ccc21 | OVCAR-5 ovarian | % | 86.5
C/C(=C\CC/C=C(\C)CC/C=C(\C)CC[C@@H](O)C(C)(C)O)CC/C=C(\C)CC[C@@H](O)C(C)(C)O | OVCAR-5 ovarian | % | 56.1
CCCn1c(=O)c2[nH]c(-c3ccc(OCc4nc5ccc(C)cc5[nH]4)cc3)nc2n(CCC)c1=O | OVCAR-5 ovarian | % | 40.6
O=C(CNc1nc(-c2ccccc2)cs1)Nc1ccc([N+](=O)[O-])cc1Cl | OVCAR-5 ovarian | % | 36.4
Brc1ccc(N/N=C/c2c[nH]c3ccccc23)nc1 | OVCAR-5 ovarian | % | 45.4
Cc1ccn2c(C(=O)c3ccc(Br)cc3)cc(-c3cc(-c4ccc(N(C)C)cc4)c(C#N)c(N)n3)c2c1 | OVCAR-5 ovarian | % | 66
CN(C(=O)c1ccc(C(F)(F)F)cc1C(F)(F)F)c1sc2c(c1C#N)CCC(=O)C2 | OVCAR-5 ovarian | % | 108
O=c1nc(-c2ccccc2)cc(-c2cc3ccccc3nc2Cl)[nH]1 | OVCAR-5 ovarian | % | 40.9
COc1ccc(-c2nc(S(=O)(=O)c3ccccc3)c(S(C)(=O)=O)o2)cc1 | OVCAR-5 ovarian | % | -77.2
